target: HLA-A*31:01; experiment: IEDB peptide-MHC binding, purified MHC/direct/fluorescence; filed as Kd, often an IC50 or EC50 that approximates it; bounds were set here for any values at or beyond the usual limits of such assays; details: source organism: Giardia intestinalis
recordedEndpoint: pKd
Numbers only, as −log10 of the molar value.

Any idea what pKd was measured for RTMPLSRFT ?
4.90

---

target: HLA-A*26:01; experiment: IEDB peptide-MHC binding, purified MHC/direct/fluorescence; filed as Kd, often an IC50 or EC50 that approximates it; bounds were set here for any values at or beyond the usual limits of such assays; details: source organism: Influenza A virus (A/Hong Kong/516/97(H5N1))
recordedEndpoint: Kd

Any idea what Kd was measured for SYINRTGTF ?
≥ 20 µM

---

molecular target: HLA-B*40:01; test: IEDB peptide-MHC binding, purified MHC/competitive/radioactivity; filed as Kd, often an IC50 or EC50 that approximates it; bounds were set here for any values at or beyond the usual limits of such assays; settings: source organism: Dengue virus 1 Brazil/97-11/1997
recordedEndpoint: Kd (µM)
One number for each entry, in µM.

1) VEDYGFGIF ... 0.388

Query sequence follows.
What Kd appears in the records for this sequence with HLA-B*40:01? IETLMLLAL
0.0107

---

biological target: HLA-B*15:01; test: IEDB peptide-MHC binding, purified MHC/direct/fluorescence; filed as Kd, often an IC50 or EC50 that approximates it; bounds were set here for any values at or beyond the usual limits of such assays; conditions: source organism: Giardia lamblia ATCC 50803
recordedEndpoint: Kd

What Kd appears in the records for this sequence with HLA-B*15:01? IHKPRPPAT
≥ 20 µM

---

target: HLA-B*18:01; assay: IEDB peptide-MHC binding, purified MHC/direct/fluorescence; filed as Kd, often an IC50 or EC50 that approximates it; bounds were set here for any values at or beyond the usual limits of such assays; conditions: source organism: Mycobacterium avium 104
pKd: −log10 of the molar value.
recordedEndpoint: pKd

Any idea what pKd was measured for IAHVRDVVM ?
≤ 4.70

---

molecular target: HLA-A*03:01; assay: IEDB peptide-MHC binding, purified MHC/competitive/radioactivity; filed as Kd, often an IC50 or EC50 that approximates it; bounds were set here for any values at or beyond the usual limits of such assays; conditions: source organism: Mammarenavirus juninense
recordedEndpoint: Kd

Before answering, review these 2 worked examples.
1) YAKKFKTGMH ... ≥ 70 µM
2) MVGLLSNSPH ... ≥ 30 µM

Query sequence follows.
What Kd appears in the records for this sequence with HLA-A*03:01? GFKNGSRHSH
14.4 µM

---

molecular target: HLA-B*08:01; test: IEDB peptide-MHC binding, purified MHC/competitive/radioactivity; filed as Kd, often an IC50 or EC50 that approximates it; bounds were set here for any values at or beyond the usual limits of such assays; conditions: source organism: Dengue virus 2 Jamaica/1409/1983
What Kd was measured for each of the following?
Numbers only, in µM.

1. VDRKGKVVGL ... 6.32

// for each sequence in input: emit Kd
1. MDLEKRHVL
2. HFQRALIFIL

1: 0.068; 2: 1.73

---

target: HLA-A*02:01; assay: IEDB peptide-MHC binding, purified MHC/competitive/fluorescence; filed as Kd, often an IC50 or EC50 that approximates it; bounds were set here for any values at or beyond the usual limits of such assays; conditions: source organism: Vibrio parahaemolyticus AQ3810
recordedEndpoint: pKd
Numbers only, as −log10 of the molar value.

Any idea what pKd was measured for MLTNASGHA ?
6.70

---

target: HLA-A*03:01; experiment: IEDB peptide-MHC binding, purified MHC/direct/fluorescence; filed as Kd, often an IC50 or EC50 that approximates it; bounds were set here for any values at or beyond the usual limits of such assays; conditions: source organism: Vibrio vulnificus CMCP6
pKd: −log10 of the molar value.
recordedEndpoint: pKd

What pKd appears in the records for this sequence with HLA-A*03:01? KQIVIINPM
≤ 4.70

---

molecular target: HLA-B*57:01; assay: IEDB peptide-MHC binding, purified MHC/competitive/radioactivity; filed as Kd, often an IC50 or EC50 that approximates it; bounds were set here for any values at or beyond the usual limits of such assays; settings: source organism: Dengue virus 1 Brazil/97-11/1997
recordedEndpoint: pKd
One number for each entry, as −log10 of the molar value.

Any idea what pKd was measured for KQIQKVETW ?
6.34

---

target: HLA-A*69:01; experiment: IEDB peptide-MHC binding, purified MHC/competitive/fluorescence; filed as Kd, often an IC50 or EC50 that approximates it; bounds were set here for any values at or beyond the usual limits of such assays; conditions: source organism: Human immunodeficiency virus 1
recordedEndpoint: Kd (µM)
Answers are plain numbers, in µM.

Any idea what Kd was measured for RSLYNTVATLY ?
16.6

---

target: HLA-B*51:01; assay: IEDB peptide-MHC binding, purified MHC/direct/fluorescence; filed as Kd, often an IC50 or EC50 that approximates it; bounds were set here for any values at or beyond the usual limits of such assays; conditions: source organism: Yersinia pestis
recordedEndpoint: Kd

Any idea what Kd was measured for RPQLWRYRW ?
≥ 20 µM

---

target: HLA-A*23:01; assay: IEDB peptide-MHC binding, purified MHC/competitive/radioactivity; filed as Kd, often an IC50 or EC50 that approximates it; bounds were set here for any values at or beyond the usual limits of such assays; details: source organism: Lassa virus GA391
recordedEndpoint: Kd (nM)
Give bare numbers, in nM.

Any idea what Kd was measured for YCNYSRYWYL ?
1150

---

molecular target: HLA-A*02:01; assay: IEDB peptide-MHC binding, purified MHC/direct/fluorescence; filed as Kd, often an IC50 or EC50 that approximates it; bounds were set here for any values at or beyond the usual limits of such assays; details: source organism: Francisella tularensis subsp. tularensis FSC198
recordedEndpoint: Kd (nM)
Numbers only, in nM.

What Kd appears in the records for this sequence with HLA-A*02:01? SILEYAKSI
102

---

What Kd was measured for each of the following?
target: HLA-A*02:03; assay: IEDB peptide-MHC binding, purified MHC/competitive/radioactivity; filed as Kd, often an IC50 or EC50 that approximates it; bounds were set here for any values at or beyond the usual limits of such assays; conditions: source organism: Vaccinia virus WR
Give bare numbers, in nM.

Before answering, review these 3 worked examples.
1) AVSVYGAIT ... 9610
2) NITRLEVIGL ... 95.1
3) DLTALLSCI ... 996

// for each sequence in input: emit Kd
1. IIMAINVFT
2. VLLPFYETL
3. FISSFLLPLT

[180, 267, 44.2]

---

target: HLA-B*07:02; assay: IEDB peptide-MHC binding, purified MHC/competitive/fluorescence; filed as Kd, often an IC50 or EC50 that approximates it; bounds were set here for any values at or beyond the usual limits of such assays; settings: source organism: Yersinia pestis Antiqua
pKd: −log10 of the molar value.
recordedEndpoint: pKd

What pKd appears in the records for this sequence with HLA-B*07:02? AKRYEKSAM
≤ 4.70

---

target: HLA-A*11:01; test: IEDB peptide-MHC binding, purified MHC/direct/fluorescence; filed as Kd, often an IC50 or EC50 that approximates it; bounds were set here for any values at or beyond the usual limits of such assays; settings: source organism: Salmonella enterica subsp. enterica serovar Typhi
pKd: −log10 of the molar value.
recordedEndpoint: pKd

What pKd appears in the records for this sequence with HLA-A*11:01? REILFHNTM
≤ 4.70

---

target: HLA-B*39:01; experiment: IEDB peptide-MHC binding, purified MHC/direct/fluorescence; filed as Kd, often an IC50 or EC50 that approximates it; bounds were set here for any values at or beyond the usual limits of such assays; settings: source organism: Mycobacterium tuberculosis str. Haarlem
pKd: −log10 of the molar value.
recordedEndpoint: pKd

Any idea what pKd was measured for WEITYLGTT ?
≤ 4.70

---

target: HLA-B*53:01; test: IEDB peptide-MHC binding, purified MHC/competitive/fluorescence; filed as Kd, often an IC50 or EC50 that approximates it; bounds were set here for any values at or beyond the usual limits of such assays; conditions: source organism: Vibrio vulnificus CMCP6
recordedEndpoint: Kd

Any idea what Kd was measured for KQIVIINPM ?
≥ 5 µM

---

biological target: HLA-C*04:01; assay: IEDB peptide-MHC binding, purified MHC/competitive/fluorescence; filed as Kd, often an IC50 or EC50 that approximates it; bounds were set here for any values at or beyond the usual limits of such assays; settings: source organism: human gammaherpesvirus 4
pKd: −log10 of the molar value.
recordedEndpoint: pKd

Any idea what pKd was measured for FTASVSTVV ?
≤ 5.30

---

target: HLA-A*69:01; experiment: IEDB peptide-MHC binding, purified MHC/direct/fluorescence; filed as Kd, often an IC50 or EC50 that approximates it; bounds were set here for any values at or beyond the usual limits of such assays; conditions: source organism: Vibrio parahaemolyticus
recordedEndpoint: Kd

Any idea what Kd was measured for EIPGSPGSY ?
≥ 20 µM
